Biological target: Prostaglandin G/H synthase 1 (Ovis aries)
Sequence (P05979 whole entry): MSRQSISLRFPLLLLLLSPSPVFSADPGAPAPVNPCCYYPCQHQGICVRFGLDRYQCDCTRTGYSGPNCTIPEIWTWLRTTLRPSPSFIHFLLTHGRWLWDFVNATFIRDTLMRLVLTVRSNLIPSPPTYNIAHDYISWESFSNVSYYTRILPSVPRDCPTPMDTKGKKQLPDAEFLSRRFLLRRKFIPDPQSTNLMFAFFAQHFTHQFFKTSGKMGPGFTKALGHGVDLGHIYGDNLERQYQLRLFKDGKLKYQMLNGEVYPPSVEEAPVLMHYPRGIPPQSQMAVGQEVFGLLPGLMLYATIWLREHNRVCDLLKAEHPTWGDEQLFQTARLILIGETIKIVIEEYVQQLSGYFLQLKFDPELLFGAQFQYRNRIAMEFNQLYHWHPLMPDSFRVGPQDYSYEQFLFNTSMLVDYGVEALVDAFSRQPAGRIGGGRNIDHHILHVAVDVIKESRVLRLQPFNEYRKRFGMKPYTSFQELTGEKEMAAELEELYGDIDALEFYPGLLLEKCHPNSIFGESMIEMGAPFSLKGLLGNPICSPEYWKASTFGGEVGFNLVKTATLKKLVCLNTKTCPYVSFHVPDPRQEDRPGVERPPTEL
pIC50: −log10 of the molar value.
Listed next: entries and their corresponding pIC50.

[
  {
    "Smiles Entry": "Cc1ccc(C(=Cc2ccc(S(C)(=O)=O)cc2)c2ccc(C)cc2)cc1",
    "Assay Value": "< 4.00"
  }
]

Consider CS(=O)(=O)c1ccc(/C(=C/c2ccc(F)c(F)c2)c2ccccc2)cc1 . Its measured pIC50 is < 4.00

Lab note: CS(=O)(=O)c1ccc(/C(=C/c2ccccc2)c2ccccc2)cc1 gave pIC50 of 6.85

The molecule listed as CS(=O)(=O)c1ccc(/C(=C/c2ccc(F)cc2)c2ccccc2)cc1 has a reported pIC50 of < 4.00

# pIC50 (molecule: Cc1ccc(/C=C(\c2ccccc2)c2ccc(S(C)(=O)=O)cc2)cc1 ) is < 4.00

Record CS(=O)(=O)c1ccc(C=C(c2ccc(Cl)cc2)c2ccc(Cl)cc2)cc1 , field pIC50: < 4.00

Data credit: ChEMBL document CHEMBL1141887
